Source of measurements: paper PMC11763264

System: B. subtilis (ATCC-6633)
measurement-notes: microbe, parasite or virus in culture
Type: cell-based, Bacillus subtilis
settings: ATCC-6633, 24 h
Non-standard residues stand in square brackets, D forms with d. Residues, ends and D or L forms follow the SMILES beside them. Dip = N[C@H](C(=O)O)C(c1ccccc1)c1ccccc1
assay-metric: MIC (µM)
Value expressed in µM; do not type the unit.

Task item: Would you mind telling me what MIC value was observed for N=C(N)NCCC[C@@H]1NC(=O)[C@H](C(c2ccccc2)c2ccccc2)NC(=O)[C@H](CCCNC(=N)N)NC(=O)[C@H](C(c2ccccc2)c2ccccc2)NC(=O)[C@H](CCCNC(=N)N)NC(=O)[C@H](C(c2ccccc2)c2ccccc2)NC(=O)[C@H](CCCNC(=N)N)NC(=O)[C@H](C(c2ccccc2)c2ccccc2)NC(=O)[C@H](CCCNC(=N)N)NC(=O)[C@H](C(c2ccccc2)c2ccccc2)NC1=O [[DipR]5] (cyclo([Dip]R[Dip]R[Dip]R[Dip]R[Dip]R)) ?
Reply: 6.3

Task item: Would you mind telling me what MIC value was observed for N=C(N)NCCC[C@H](NC(=O)[C@@H](NC(=O)[C@H](CCCNC(=N)N)NC(=O)[C@@H](NC(=O)[C@H](CCCNC(=N)N)NC(=O)[C@@H](NC(=O)[C@H](CCCNC(=N)N)NC(=O)[C@H](Cc1c[nH]c2ccccc12)NC(=O)[C@H](CCCNC(=N)N)NC(=O)[C@@H](N)Cc1c[nH]c2ccccc12)C(c1ccccc1)c1ccccc1)C(c1ccccc1)c1ccccc1)C(c1ccccc1)c1ccccc1)C(=O)O [((DipR)3(WR)2)] (H-WRWR[Dip]R[Dip]R[Dip]R-OH) ?
Reply: 3.1

Task item: Would you mind telling me what MIC value was observed for N=C(N)NCCC[C@H](NC(=O)[C@@H](NC(=O)[C@H](CCCNC(=N)N)NC(=O)[C@H](Cc1c[nH]c2ccccc12)NC(=O)[C@H](CCCNC(=N)N)NC(=O)[C@H](Cc1c[nH]c2ccccc12)NC(=O)[C@H](CCCNC(=N)N)NC(=O)[C@H](Cc1c[nH]c2ccccc12)NC(=O)[C@H](CCCNC(=N)N)NC(=O)[C@@H](N)Cc1c[nH]c2ccccc12)C(c1ccccc1)c1ccccc1)C(=O)O [((DipR)(WR)4)] (H-WRWRWRWR[Dip]R-OH) ?
Reply: 3.1

Task item: Would you mind telling me what MIC value was observed for N=C(N)NCCC[C@H](NC(=O)[C@@H](NC(=O)[C@H](CCCNC(=N)N)NC(=O)[C@@H](NC(=O)[C@H](CCCNC(=N)N)NC(=O)[C@@H](NC(=O)[C@H](CCCNC(=N)N)NC(=O)[C@@H](NC(=O)[C@H](CCCNC(=N)N)NC(=O)[C@@H](N)Cc1c[nH]c2ccccc12)C(c1ccccc1)c1ccccc1)C(c1ccccc1)c1ccccc1)C(c1ccccc1)c1ccccc1)C(c1ccccc1)c1ccccc1)C(=O)O [((DipR)4(WR))] (H-WR[Dip]R[Dip]R[Dip]R[Dip]R-OH) ?
Reply: 12.5

---

Would you mind telling me the reported MIC of each entry?
Test system: MRSA (ATCC BAA-1556)
measurement-notes: microbe, parasite or virus in culture
Format: cell-based, Methicillin-Resistant Staphylococcus aureus
settings: ATCC BAA-1556, 24 h
Non-standard residues stand in square brackets, D forms with d. Residues, ends and D or L forms follow the SMILES beside them. Dip = N[C@H](C(=O)O)C(c1ccccc1)c1ccccc1
Value expressed in µM; do not type the unit.

Task item: Find MIC (MRSA (ATCC BAA-1556)) for the entry N=C(N)NCCC[C@@H]1NC(=O)[C@H](Cc2c[nH]c3ccccc23)NC(=O)[C@H](CCCNC(=N)N)NC(=O)[C@H](Cc2c[nH]c3ccccc23)NC(=O)[C@H](CCCNC(=N)N)NC(=O)[C@H](C(c2ccccc2)c2ccccc2)NC(=O)[C@H](CCCNC(=N)N)NC(=O)[C@H](Cc2c[nH]c3ccccc23)NC(=O)[C@H](CCCNC(=N)N)NC(=O)[C@H](Cc2c[nH]c3ccccc23)NC1=O [[(DipR)(WR)4]] (cyclo([Dip]RWRWRWRWR))
Reply: 3.1

Task item: Find MIC (MRSA (ATCC BAA-1556)) for the entry N=C(N)NCCC[C@H](NC(=O)[C@@H](NC(=O)[C@H](CCCNC(=N)N)NC(=O)[C@@H](NC(=O)[C@H](CCCNC(=N)N)NC(=O)[C@@H](NC(=O)[C@H](CCCNC(=N)N)NC(=O)[C@H](Cc1c[nH]c2ccccc12)NC(=O)[C@H](CCCNC(=N)N)NC(=O)[C@@H](N)Cc1c[nH]c2ccccc12)C(c1ccccc1)c1ccccc1)C(c1ccccc1)c1ccccc1)C(c1ccccc1)c1ccccc1)C(=O)O [((DipR)3(WR)2)] (H-WRWR[Dip]R[Dip]R[Dip]R-OH)
Reply: 3.1

Task item: Find MIC (MRSA (ATCC BAA-1556)) for the entry N=C(N)NCCC[C@@H]1NC(=O)[C@H](Cc2c[nH]c3ccccc23)NC(=O)[C@H](CCCNC(=N)N)NC(=O)[C@H](Cc2c[nH]c3ccccc23)NC(=O)[C@H](CCCNC(=N)N)NC(=O)[C@H](C(c2ccccc2)c2ccccc2)NC(=O)[C@H](CCCNC(=N)N)NC(=O)[C@H](C(c2ccccc2)c2ccccc2)NC(=O)[C@H](CCCNC(=N)N)NC(=O)[C@H](Cc2c[nH]c3ccccc23)NC1=O [[(DipR)2(WR)3]] (cyclo([Dip]R[Dip]RWRWRWR))
Reply: 3.1
